- experimentalSystem: Hck (UniProt P08631)
- Sequence (P08631 whole entry, looked up): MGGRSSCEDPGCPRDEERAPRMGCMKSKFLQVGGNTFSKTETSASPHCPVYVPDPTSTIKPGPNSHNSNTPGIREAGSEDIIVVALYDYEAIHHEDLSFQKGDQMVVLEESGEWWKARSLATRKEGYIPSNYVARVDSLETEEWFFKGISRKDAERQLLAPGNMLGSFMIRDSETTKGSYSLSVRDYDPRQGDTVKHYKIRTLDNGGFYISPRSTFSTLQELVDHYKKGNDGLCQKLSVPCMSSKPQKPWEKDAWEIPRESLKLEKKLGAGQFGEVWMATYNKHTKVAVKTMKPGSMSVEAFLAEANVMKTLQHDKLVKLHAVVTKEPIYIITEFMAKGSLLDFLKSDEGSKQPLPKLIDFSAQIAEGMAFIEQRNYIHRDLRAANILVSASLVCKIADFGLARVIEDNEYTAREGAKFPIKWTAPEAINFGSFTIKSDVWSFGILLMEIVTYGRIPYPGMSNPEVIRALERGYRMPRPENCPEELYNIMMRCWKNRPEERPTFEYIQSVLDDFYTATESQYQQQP
- protocolDetails: phosphorylation enrichment, bacterial display (enrichment ratio); higher = better substrate or ligand; peptides without Tyr show the background;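 further: 11-residue human phosphosite peptides and single-mutation variants displayed on the E. coli surface, counted by deep sequencing, each peptide's frequency after selection divided by its frequency in the unselected input library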;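 further: frequency after pTyr selection over input frequency; kinase dosed for 20-30% of maximal phosphorylation in three min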
Would you kindly list phosphorylation enrichment for each of these sequences?
One number for each entry.

Request: Please report phosphorylation enrichment for the following sequence: NIFSFYLSRDP [CTSD_Y232]
Result: 0.461

Request: Please report phosphorylation enrichment for the following sequence: PLLEYYRDIFT [CDAN1_Y713]
Result: 0.846

Request: Please report phosphorylation enrichment for the following sequence: EQKKYSNAMKK [SCN5A_Y1495_Y1495S]
Result: 0.467

Request: Please report phosphorylation enrichment for the following sequence: GVIRHSVVCST [BTK_Y334_Y334S]
Result: 0.436

// batch mode: one phosphorylation enrichment value per listed entry
1. GENTVYAQVFN [LY9_Y603_M602V]
2. AAILGYCRGEA [XPC_Y669]
3. SADIAYNFRHG [PAH_Y166_F161S_YF]
4. RSFLSYFTSHV [NEFL_Y442_P440L_YF]
5. RHTRSYDYTEG [FGF7_Y56_M59T]

Result:
6.46
0.467
0.423
0.915
0.602

// batch mode: one phosphorylation enrichment value per listed entry
1. LAAAGYDVEKN [H1-3_Y72]
2. VQVAYYTVMMN [SPATA17_Y84_M86V]
3. ALWFIYSHTRS [ENG_Y614_YF]
4. PSFSEYASVQV [SIRPA_Y496]
5. KDHPDYKYQPR [SOX10_Y171]
6. ESLSSYWESAK [APOC2_Y47]
7. DRKRQYELLKL [KIF4B_Y684]
8. EFGRRYGFSCQ [CCDC93_Y209_R213C_YF]

Result:
0.692
1.69
0.448
1.93
0.463
0.464
0.488
0.418
